# test description: photoluminescence quantum yield (fraction); solvent given as SMILES
# condition set: in CCCCCC
Please respond with reported photoluminescence quantum yield for every item in the list.

response.value for `CN(c1ccccc1)c1ccc(/C=C/c2ccccc2)cc1` (field: photoluminescence quantum yield) = 0.64

response.value for `CC1=CC(C)=[N+]2C1=Cc1c3ccccc3c(C#Cc3ccsc3)n1[B-]2(F)F` (field: photoluminescence quantum yield) = 1

response.value for `Cc1ccc(C)n1-c1ccccc1` (field: photoluminescence quantum yield) = 0.005

response.value for `CCCCc1ccc2ccc3c(CCCC)ccc4ccc1c2c43` (field: photoluminescence quantum yield) = 0.47

response.value for `CC(C)[Si](C#Cc1c2cc3ccccc3cc2c(C#C[Si](C(C)C)(C(C)C)C(C)C)c2nc3c(ccc4cc5ccccc5cc43)nc12)(C(C)C)C(C)C` (field: photoluminescence quantum yield) = 0.26

response.value for `COc1ccc(N2c3cc(OC)ccc3N=c3cc4c(cc32)=Nc2cc(C(C)(C)C)cc(C(C)(C)C)c2O4)cc1` (field: photoluminescence quantum yield) = 0.31

Measured values drawn from the Deep4Chem optical property database for this set.
